# PBM binding z-score per record follows
Tested on: FXR:RXRa (NR concentration 270 nM, RXRa partner concentration 90 nM)
Assay: PBM binding z-score (relative to random genomic background probes); higher = stronger binding; sequences stand for … in GC…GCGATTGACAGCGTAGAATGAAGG
Write the number on its own, no unit after it.

// below: answered sequences
Residue Sequence	Measured
TTACCTAGGTGAGCTGAGGTCGTTGATCCAACTC	0.355
AGTCAAAGATCACTAGGTAACGTAAGATTCAGCT	-0.239
ACTAGCAGGCCGAGTTTGGGTCACTCAAACAAAG	-0.115
CCTTACGGGTCGCGAGGTTATAGCACGACGAGCG	2.87
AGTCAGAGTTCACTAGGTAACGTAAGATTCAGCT	4.41
TCATATAGGTAATACAGGTGAAAGTAGGCATCTA	0.885

## Input Form field: reported PBM binding z-score of CCTAGCAGGCTAATCTGGGTCACTCAAGGCTTGA
## Output 0.577

## Input Form field: reported PBM binding z-score of TCTAGCAGGCCAGAGGGTCGCTCAAGAGGTACGG
## Output -2.83

## Input Form field: reported PBM binding z-score of GCTAGCAGGCCAATTGGGTCACTCAATGACGGGC
## Output -0.057

## Input Form field: reported PBM binding z-score of ACTAGTTGGTCAGCGGAGGTCACACACAATTCGG
## Output 2.84

## Input Form field: reported PBM binding z-score of CGAACTAGGTCATCCAGGACAGTGGATACATTGA
## Output 4.72

## Input Form field: reported PBM binding z-score of AGAATGAGGTTAAGATCAGGCAAACAGAATACAT
## Output 2.11

## Input Form field: reported PBM binding z-score of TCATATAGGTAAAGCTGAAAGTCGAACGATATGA
## Output 0.358

These measurements were taken from the supplement of paper PMC6555819.
